In this section, each of the compounds is paired with its reported remaining at 6 h.
assay: Stability of compound assessed as level of starting material at 37 degC for 6 hrs in absence of glutathione; assay type: physicochemical; details: read-out: Stability
# value in %; strip the unit string

{"Compound": "Oc1ccc(CCCCc2ccc(O)c(O)c2)cc1O", "remaining at 6 h (%)": 8.52}

# context switch: different compound, same remaining at 6 h
Prompt: Consider the compound shown here: CC(Cc1ccc(O)c(O)c1)C(C)Cc1ccc(O)c(O)c1 (configuration not stated) [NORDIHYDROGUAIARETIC ACID] What is its recorded remaining at 6 h?
Completion: 66.9

----------
test: Drug degradation in 0.5M phosphate citric acid buffer at 0.5 mM at pH 7.4 at 37 degC by HPLC-UV analysis; type: physicochemical; conditions: pH 7.4, 500 µM
Parameter threshold = 4 ×10⁻⁵ /s. Response is true when K meets or exceeds it, else false.

{"Compound": "CC(Cc1ccccc1)C(C)Cc1ccc(O)c(O)c1 (configuration not stated)", "Discrete Label": "true"}
{"Compound": "Oc1ccc(CCCCc2ccc(O)c(O)c2)cc1O", "Discrete Label": "true"}
{"Compound": "COc1ccc(CC(C)C(C)Cc2ccc(O)c(O)c2)cc1OC (configuration not stated)", "Discrete Label": "true"}

Prompt: Test whether the compound CC(Cc1ccc(O)c(O)c1)C(C)Cc1ccc(O)c(O)c1 (configuration not stated) [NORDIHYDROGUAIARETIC ACID] records K of 4 ×10⁻⁵ /s or higher.
Completion: true

Prompt: Next compound: COc1cc(CC(C)C(C)Cc2ccccc2)ccc1O (configuration not stated)
Completion: false

Prompt: Next compound: COc1cc(CC(C)C(C)Cc2ccc(O)c(OC)c2)ccc1O (configuration not stated) [DIHYDROGUAIARETIC ACID]
Completion: false

----------
In this section, each of the compounds is paired with its reported half-life at 500 µM.
test: Half life of the compound in 0.5M phosphate citric acid buffer at 0.5 mM at pH 7.4 at 37 degC by HPLC-UV analysis; type: ADME
Phrase the answer as number then unit, nothing more needed.

Completed entries (count: 6):
{"Compound": "CC(Cc1ccccc1)C(C)Cc1ccc(O)c(O)c1 (configuration not stated)", "Result": "4.22 h"}
{"Compound": "COc1ccc(CC(C)C(C)Cc2ccc(OC)c(O)c2)cc1O (configuration not stated)", "Result": "4.68 h"}
{"Compound": "COc1cc(CC(C)C(C)Cc2ccccc2)ccc1O (configuration not stated)", "Result": "5.49 h"}
{"Compound": "COc1cc(CC(C)C(C)Cc2ccc(O)c(OC)c2)ccc1O (configuration not stated) [DIHYDROGUAIARETIC ACID]", "Result": "6.7 h"}
{"Compound": "CC(Cc1ccc(O)c(O)c1)C(C)Cc1ccc(O)c(O)c1 (configuration not stated) [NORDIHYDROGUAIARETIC ACID]", "Result": "3.94 h"}
{"Compound": "Oc1ccc(CCCCc2ccc(O)c(O)c2)cc1O", "Result": "1.47 h"}

# context switch: different compound, same half-life at 500 µM
Prompt: Consider the compound shown here: COc1ccc(CC(C)C(C)Cc2ccc(O)c(O)c2)cc1OC (configuration not stated) What is its recorded half-life at 500 µM?
Completion: 4.62 h

----------
In this section, each of the molecules is paired with its reported remaining at 6 h.
experiment: Stability of compound assessed as level of starting material at 37 degC for 6 hrs in presence of 20 fold excess of glutathione; assay type: physicochemical; details: read-out: Stability

{"Molecule": "Oc1ccc(CCCCc2ccc(O)c(O)c2)cc1O", "remaining at 6 h": "95.5%"}

# context switch: different molecule, same remaining at 6 h
Prompt: Consider the molecule shown here: CC(Cc1ccc(O)c(O)c1)C(C)Cc1ccc(O)c(O)c1 (configuration not stated) [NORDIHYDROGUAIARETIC ACID] What is its recorded remaining at 6 h?
Completion: 87.1%

These data points were gathered from ChEMBL document CHEMBL3627654.
